Assay: Intrinsic clearance in human liver microsomes at 0.2 uM
Assay type: ADME, Microsome
experimental readout: log10 CLint scaled at 0.2 µM (log10 of the value in mL/min/kg)
The figures below represent log10 of CLint scaled at 0.2 µM, where CLint scaled at 0.2 µM is stated in mL/min/kg.

Query: Given the entry Cc1c(COc2cncc(OCC3CCOCC3)c2)[nH]c2ccccc2c1=O , report its measured log10 CLint scaled at 0.2 µM.
Response: 2.12

Query: Would you mind telling me what log10 CLint scaled at 0.2 µM value was observed for Cc1c(COc2cc(OCCC(C)(C)O)ccn2)[nH]c2ccccc2c1=O ?
Response: 1.58

Query: Can you look up the measured log10 CLint scaled at 0.2 µM of O=c1c(Cl)c(COc2cccc(OCC3CCOCC3)c2)[nH]c2ccccc12 for me?
Response: 2.66

Query: // returns reported log10 CLint scaled at 0.2 µM for input Cc1c(COc2ccnc(OCC3CCOCC3)c2)[nH]c2ccccc2c1=O
Response: 1.98

Query: Field request: log10 CLint scaled at 0.2 µM | item: Cc1c(COc2cccc(OCCCC(F)(F)F)c2)nc2ccccc2c1O
Response: 2.41

Query: What measured log10 CLint scaled at 0.2 µM goes with Cc1c(COc2cc(OCC3CCOCC3)ccn2)[nH]c2ccccc2c1=O ?
Response: 2.05

Query: log10 CLint scaled at 0.2 µM for Cc1c(COc2cccc(OCC3CCOCC3)n2)[nH]c2ccccc2c1=O ?
Response: 2.89

Query: Endpoint output: log10 CLint scaled at 0.2 µM of Cc1c(COc2cccc(OCC3CCOCC3)c2)[nH]c2ccccc2c1=O . Value?
Response: 2.33

Query: Quick check: log10 CLint scaled at 0.2 µM of O=c1cc(COc2cccc(OCC3CCOCC3)c2)[nH]c2ccccc12 ?
Response: 1.89

Query: Quick one: log10 CLint scaled at 0.2 µM of Cc1c(COc2cncc(OCCC(C)(C)O)c2)[nH]c2ccccc2c1=O ?
Response: 1.82

Query: Report log10 CLint scaled at 0.2 µM for Cc1c(COc2cccc(OCC3CCOCC3)c2)[nH]c2ccc(F)cc2c1=O please.
Response: 2.67

Query: Entry Cc1c(COCCCCOCC2(C)COC2)[nH]c2ccccc2c1=O : reported log10 CLint scaled at 0.2 µM = ?
Response: 1.72

Query: # query: log10 CLint scaled at 0.2 µM of entry Cc1c(COc2cccc(OCC3CCOCC3)c2)[nH]c2ccc(-c3cccnc3)cc2c1=O
Response: 2.88

Query: Given COCCOCCCCc1[nH]c2ccccc2c(=O)c1C , state its recorded log10 CLint scaled at 0.2 µM.
Response: 1.65

###

Assay: Tmax in Sprague-Dawley rat at 1 mg/kg, po
Type: ADME, organism-based
Set-up: dose 1 mg/kg, route oral
Details: in vivo
experimental readout: Tmax (h)
Write down the numeric answer in h and omit the unit.

Query: I'd like to know its Tmax. The molecule in question is Cc1c(COc2cc(OCCC(C)(C)O)ccn2)[nH]c2ccccc2c1=O
Response: 4

###

Assay: Intrinsic clearance in mouse liver microsomes at 0.2 uM
Type: ADME, Microsome
Provide the recorded CLint scaled at 0.2 µM for the entries that follow.

Query: Please give the measured CLint scaled at 0.2 µM for this compound: CCCCCC/C=C/Cc1[nH]c2ccccc2c(=O)c1C
Response: > 1000 mL/min/kg

Query: Given the compound CCCCOc1cccc(OCc2[nH]c3ccccc3c(=O)c2C)c1 , what is its reported CLint scaled at 0.2 µM?
Response: > 1000 mL/min/kg

Query: If you can, please state the reported CLint scaled at 0.2 µM value of Cc1c(COc2ccnc(OCC3CCOCC3)c2)[nH]c2ccccc2c1=O .
Response: 203 mL/min/kg

Query: Quick one: CLint scaled at 0.2 µM of Cc1c(COc2cccc(OCC3CCOCC3)c2)[nH]c2ccc(-c3cccnc3)cc2c1=O ?
Response: > 1000 mL/min/kg
